- Test summary: in vitro
- Cond: pig, LLC-PK1
Measured metric: Papp
Hi, when you answer, please include the unit after the number. Thanks!

Notebook: "CO[C@H]1/C=C/CCN(C)C(=O)C[C@](O)(C(=O)O)c2ccc3c(c2)N(C[C@@H]2CC[C@H]21)C[C@@]1(CCCc2cc(Cl)ccc21)CO3" , Papp read as 4.5 ×10⁻⁶ cm/s

---

- Test summary: in vivo
- Cond: Sprague-Dawley, rat, iv, 0.5 mg/kg
Measured metric: clearance (mL/min/kg)
Number only, in mL/min/kg; omit the unit.

* COC1CN(CCO[C@H]2/C=C/CCN(C)C(=O)C[C@](O)(C(=O)NS(=O)(=O)N(C)C)c3ccc4c(c3)N(C[C@@H]3CC[C@H]32)C[C@@]2(CCCc3cc(Cl)ccc32)CO4)C1 | 58.3
* CN1CC/C=C/[C@H](OCCN2CCOCC2)[C@@H]2CC[C@H]2CN2C[C@@]3(CCCc4cc(Cl)ccc43)COc3ccc(cc32)[C@@](O)(C(=O)NS(=O)(=O)N(C)C)CC1=O | 15
* CN(C)C(=O)CO[C@H]1/C=C/CCN(C)C(=O)C[C@](O)(C(=O)NS(=O)(=O)N(C)C)c2ccc3c(c2)N(C[C@@H]2CC[C@H]21)C[C@@]1(CCCc2cc(Cl)ccc21)CO3 | 21.7

Then there is this compound:
Notebook: "CN1CC/C=C/[C@H](OCCN2CC(F)C2)[C@@H]2CC[C@H]2CN2C[C@@]3(CCCc4cc(Cl)ccc43)COc3ccc(cc32)[C@@](O)(C(=O)NS(=O)(=O)N(C)C)CC1=O" , clearance read as 11.7
